# Protocol summary: Caco-2 membrane permeability test
# Condition set: human, Caco-2, pH 7.4
Quantity measured: Papp A→B at 90 min, 10 μM (×10⁻⁶ cm/s)

INSERT INTO results (compound, unit_tag, reported) VALUES
  ('Cc1c(NC(=O)c2cc(C3CC3)c(CN[C@H](CO)C(=O)O)cn2)cccc1-c1cccc(NC(=O)c2cc(C3CC3)c(CN[C@H](CO)C(=O)O)cn2)c1C [compound 2, reference compound]', '×10⁻⁶ cm/s', 0.67);

(P) Cc1c(NC(=O)c2cc(C3CC3)c(CN3CC[C@H](C(=O)O)C3)cn2)cccc1-c1cccc(NC(=O)c2cc(C3CC3)c(CN3CC[C@H](C(=O)O)C3)cn2)c1C
(Q) Cc1c(NC(=O)c2cc(C3CC3)c(CNCC34CCC(C(=O)O)(CC3)C4)cn2)cccc1-c1cccc(NC(=O)c2cc(C3CC3)c(CNCC34CCC(C(=O)O)(CC3)C4)cn2)c1C
Just curious, which one has the larger Papp A→B at 90 min, 10 μM reading, P or Q ? Write down the label attached to your selection.
Q
(Q: 9.79 ×10⁻⁶ cm/s, P: 0.34 ×10⁻⁶ cm/s)

###

# Study target: PD-1/PD-L1 interaction (Jurkat/NF-κB-luc/PD1 cells cocultured with Raji-PD-L1 cells) (Homo sapiens (Human))
# Sequence (Q9NZQ7 19-290): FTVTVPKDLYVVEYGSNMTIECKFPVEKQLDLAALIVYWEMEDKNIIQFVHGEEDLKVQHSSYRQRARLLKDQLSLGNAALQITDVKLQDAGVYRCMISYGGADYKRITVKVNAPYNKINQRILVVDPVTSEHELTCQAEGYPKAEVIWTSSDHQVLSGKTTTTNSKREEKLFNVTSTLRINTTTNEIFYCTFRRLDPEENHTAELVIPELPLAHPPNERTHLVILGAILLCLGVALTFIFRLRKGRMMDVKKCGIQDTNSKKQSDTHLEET
# Protocol summary: Jurkat reporter gene cellular assay
# Condition set: NF-κB-luc reporter activation fold, OKT3 1 μg/mL, 6 hrs; read-out: Cell activity EC50
Quantity measured: EC50 (nM)

INSERT INTO results (molecule, reported) VALUES
  ('Cc1c(NC(=O)c2cc(C3CC3)c(CNC34CCC(C(=O)O)(CC3)C4)cn2)cccc1-c1cccc(NC(=O)c2cc(C3CC3)c(CNC34CCC(C(=O)O)(CC3)C4)cn2)c1C', 151);

(1) Cc1c(NC(=O)c2cc(C3CC3)c(CN(C)C34CCC(C(=O)O)(CC3)C4)cn2)cccc1-c1cccc(NC(=O)c2cc(C3CC3)c(CN(C)C34CCC(C(=O)O)(CC3)C4)cn2)c1C
(2) Cc1c(NC(=O)c2cc(C3CC3)c(CNCC34CCC(C(=O)O)(CC3)C4)cn2)cccc1-c1cccc(NC(=O)c2cc(C3CC3)c(CNCC34CCC(C(=O)O)(CC3)C4)cn2)c1C
(3) Cc1c(NC(=O)c2cc(C3CC3)c(CNC34CCC(C(=O)O)(CC3)CC4)cn2)cccc1-c1cccc(NC(=O)c2cc(C3CC3)c(CNC34CCC(C(=O)O)(CC3)CC4)cn2)c1C
Task for the reader: rank each entry by its EC50, from the minimum upward. List each label, following the requested order.
3, 2, 1

###

# Protocol summary: Pharmacokinetics in rats (exposure and oral availability)
# Type: in vivo
# Condition set: male, ICR, rat, 5 mg/kg, PO (5 mpk), dosed compound detected in plasma
Quantity measured: AUC(0-t) (ng·h/mL)

(P) Cc1c(NC(=O)c2cc(C3CC3)c(CNC34CCC(C(=O)O)(CC3)CC4)cn2)cccc1-c1cccc(NC(=O)c2cc(C3CC3)c(CNC34CCC(C(=O)O)(CC3)CC4)cn2)c1C [Example 1]
(Q) Cc1c(NC(=O)c2cc(C3CC3)c(CNCC34CCC(C(=O)O)(CC3)C4)cn2)cccc1-c1cccc(NC(=O)c2cc(C3CC3)c(CNCC34CCC(C(=O)O)(CC3)C4)cn2)c1C [Example 4]
Given the two records P and Q , choose the one whose AUC(0-t) value is lower. Write down the label attached to your selection.
P

Every entry's value here was drawn from patent US20250179023A1.
